# run-description: Partition coefficient (logP) (octanol/saline)
# Type: physicochemical
property-name: logP

Prompt line: Name the recorded logP for CCCCCC(=O)C(CCCC)c1oc(=O)c(CCCC)c(O)c1CCCC (stereo not drawn) .
Response line: 2.52

[P] C/C=C(\c1ccccc1)c1oc(=O)c(CCCC)c(O)c1CCCC
[Q] CCCCCC(=O)C(CCCC)c1oc(=O)c(CCCC)c(OC(C)=O)c1CCCC (stereo not drawn)
Prompt line: Record comparison, field logP: mark the lower of P and Q . Lab log: write the label of the selected item as the result.
Response line: P
(P: 1.39, Q: 3.53)

====

Ki data for Chymotrypsin-like elastase family member 1 (Sus scrofa) follow.
property-name: Ki (µM)

Here's what some known entries look like.
Prompt line: Name the recorded Ki for `CCCCc1c(CC(C)=O)oc(=O)c(CCCC)c1O` .
Response line: 741

Prompt line: Name the recorded Ki for `Cc1oc(=O)c(C)c(O)c1C` .
Response line: 21900

Prompt line: Name the recorded Ki for Cc1cc(O)cc(=O)o1 [4-HYDROXY-6-METHYLPYRAN-2-ONE] .
Response line: 3090

Prompt line: Name the recorded Ki for `Cc1c(CC(=O)c2ccccc2)oc(=O)c(C)c1O` .
Response line: 3240

[P] Cc1cc(O)c(C)c(=O)o1
[Q] CCCCCC(=O)C(CCCC)c1oc(=O)c(CCCC)c(O)c1CCCC (centres undefined)
Prompt line: Record comparison, field Ki: mark the lower of P and Q . Lab log: write the label of the selected item as the result.
Response line: Q
(Q: 69.2 µM, P: 3890 µM)

[P] Cc1c(O)cc(CC(=O)c2ccccc2)oc1=O
[Q] CCCCc1c(C2OC2C)oc(=O)c(CCCC)c1OC(C)=O (centres undefined)
Prompt line: Record comparison, field Ki: mark the lower of P and Q . Lab log: write the label of the selected item as the result.
Response line: Q
